- Procedure Text: Population pharmacokinetics of caspofungin in HTx and non-HTx patients (plasma LC-MS/MS, NONMEM two-compartment model)
- Assay type: in vivo, human (patients)
- Condition Context: human, plasma, iv, 50 mg, Control group (n = 31); median (range); read-out: CL (converted)
Parameter Measured: clearance

Task item: Consider the molecule CC[C@H](C)C[C@H](C)CCCCCCCCC(=O)N[C@H]1C[C@@H](O)[C@@H](NCCN)NC(=O)[C@@H]2[C@@H](O)CCN2C(=O)[C@H]([C@H](O)CCN)NC(=O)[C@H]([C@H](O)[C@@H](O)c2ccc(O)cc2)NC(=O)[C@@H]2C[C@@H](O)CN2C(=O)[C@H]([C@@H](C)O)NC1=O [caspofungin] . State its measured clearance.
Reply: 7.5 mL/min

---

- Procedure Text: Population pharmacokinetics of caspofungin in HTx and non-HTx patients (plasma LC-MS/MS, NONMEM two-compartment model)
- Format: in vivo, human (patients)
- Condition Context: human, plasma, iv, 50 mg, Heart transplantation group (n = 27); median (range); read-out: CL (converted)
Parameter Measured: clearance (mL/min)
Respond numerically; units are mL/min and should not be typed.

Task item: Answer with the recorded clearance for the compound listed here: CC[C@H](C)C[C@H](C)CCCCCCCCC(=O)N[C@H]1C[C@@H](O)[C@@H](NCCN)NC(=O)[C@@H]2[C@@H](O)CCN2C(=O)[C@H]([C@H](O)CCN)NC(=O)[C@H]([C@H](O)[C@@H](O)c2ccc(O)cc2)NC(=O)[C@@H]2C[C@@H](O)CN2C(=O)[C@H]([C@@H](C)O)NC1=O [caspofungin]
Reply: 5.83

---

- Procedure Text: Population pharmacokinetics of caspofungin in HTx and non-HTx patients (plasma LC-MS/MS, NONMEM two-compartment model)
- Assay type: in vivo, human (patients)
- Condition Context: human, iv; population estimate; 58 patients (27 HTx, 31 non-HTx), 414 plasma concentrations; 50 mg q24h 1-h i.v. infusion after 70 mg loading dose; LC-MS/MS; two-compartment model; read-out: CL (clearance), final model estimate (converted)
Parameter Measured: clearance (mL/min)
Give your result in mL/min as a bare value.

Task item: Let me know recorded clearance for CC[C@H](C)C[C@H](C)CCCCCCCCC(=O)N[C@H]1C[C@@H](O)[C@@H](NCCN)NC(=O)[C@@H]2[C@@H](O)CCN2C(=O)[C@H]([C@H](O)CCN)NC(=O)[C@H]([C@H](O)[C@@H](O)c2ccc(O)cc2)NC(=O)[C@@H]2C[C@@H](O)CN2C(=O)[C@H]([C@@H](C)O)NC1=O , thanks.
Reply: 6.42

---

- Procedure Text: Population pharmacokinetics of caspofungin in HTx and non-HTx patients (plasma LC-MS/MS, NONMEM two-compartment model)
- Assay type: in vivo, human (patients)
- Condition Context: human, plasma, iv, 50 mg, Heart transplantation group (n = 27); median (range); 50 mg q24h 1-h i.v. infusion after 70 mg loading dose; read-out: Cmax (peak plasma concentration)
Parameter Measured: Cmax (ng/mL)
State just the number; it will be interpreted in ng/mL.

Task item: Please indicate Cmax recorded for CC[C@H](C)C[C@H](C)CCCCCCCCC(=O)N[C@H]1C[C@@H](O)[C@@H](NCCN)NC(=O)[C@@H]2[C@@H](O)CCN2C(=O)[C@H]([C@H](O)CCN)NC(=O)[C@H]([C@H](O)[C@@H](O)c2ccc(O)cc2)NC(=O)[C@@H]2C[C@@H](O)CN2C(=O)[C@H]([C@@H](C)O)NC1=O
Reply: 11700
